Measured IC50, listed per entry.
System Under Test: full length XPA protein (Homo sapiens)
Sequence (P23025 whole entry): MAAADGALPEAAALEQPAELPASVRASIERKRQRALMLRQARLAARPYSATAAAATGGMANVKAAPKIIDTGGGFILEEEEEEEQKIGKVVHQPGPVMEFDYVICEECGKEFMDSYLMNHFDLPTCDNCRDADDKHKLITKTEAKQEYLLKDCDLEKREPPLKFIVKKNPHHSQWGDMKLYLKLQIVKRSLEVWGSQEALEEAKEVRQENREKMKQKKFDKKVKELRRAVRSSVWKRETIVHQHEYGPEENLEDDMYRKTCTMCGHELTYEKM
Method Description: biochemical
Conditions Used: IC50 (μM), EMSA, 32P labeled 30 bp duplex DNA containing a single 1,2 dGpG cisplatin adduct, several values in a cell = separate determinations
Write the number in µM without appending the unit.

Example results:
Structure: CC1=NN(c2cccc(C(=O)O)c2)C(=O)/C1=C\c1ccc(-c2ccc(Cl)c(C(=O)NCc3ccccc3)c2)o1
IC50, µM: 36
--
Structure: O=C(O)c1cccc(N2N=C(C(F)(F)F)/C(=C/c3ccc(-c4ccc(Cl)c(C(=O)O)c4)o3)C2=O)c1
IC50, µM: 15
--
Structure: CC1=NN(c2cccc(C(=O)O)c2)C(=O)/C1=C\c1ccc(-c2ccc(Cl)c(C(=O)O)c2)s1
IC50, µM: 30
--
Structure: COc1cccc(CNC(=O)c2cc(-c3ccc(/C=C4\C(=O)N(c5ccc(C(=O)O)cc5)N=C4C)o3)ccc2Cl)c1
IC50, µM: 38

// query Request body: readout IC50, system full length XPA protein (Homo sapiens), query CC1=NN(c2cccc(C(=O)O)c2)C(=O)/C1=C\c1ccc(-c2ccc(Cl)c(C(=O)NCc3ccc(F)cc3)c2)s1 . Return the value.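 Note: XPA expressed in Sf9 cells, preincubated with compound on ice before adding DNA, complex resolved on native polyacrylamide gel at 4 °C, PhosphorImager band intensity, binding inhibition versus DMSO.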
// result 7
